- Tested on: KM12
- Test Name: NCI tumour cell line growth inhibition, 48 h
Activity calls are given as the source filed them. Rule as the data show it: active = GI50 up to about 1.1 µM and inactive = higher.
Reported GI50 values for a set of compounds

Sample records with GI50:
COc1ccc(-n2cnc3c2=NC(C)(C)NC=3C(N)=O)c(OC)c1 = > 100 µM (inactive)
COc1cc(S(=O)(=O)Nc2nc(-c3ccc(N4C(=O)CSC4c4cccs4)cc3)cs2)ccc1Cl (stereo unspecified) = 75.5 µM (inactive)
O=C1C(c2ccc([N+](=O)[O-])cc2)=[N+]([O-])c2ccc([N+](=O)[O-])cc21 = 74 µM (inactive)
Cc1ccc(O)c(C2=CC3=NNC(=O)C3C(c3cccc(Br)c3)C2)c1 (stereo unspecified) = 14.9 µM (inactive)
OC1CC(O)c2c(Cl)sc(Cl)c21 (stereo unspecified) = 27 µM (inactive)

Kindly note the recorded GI50 for `Cc1ncc([N+](=O)[O-])n1CCN(C)C(=O)CCCn1ccnc1[N+](=O)[O-]` , which is > 100 µM (inactive)

* * *

- System: RXF 393
- Test Name: NCI tumour cell line growth inhibition, 48 h
Active and inactive are the calls of the source. Rule as the data show it: active = GI50 up to about 1.1 µM and inactive = higher.
Use one of these outcomes when replying: true (1) (active), false (0) (inactive)

O=C1CCCC2=C1C(c1ccc3c(c1)OCO3)Nc1ccc3ccccc3c12 (stereo unspecified) = false (0)
CCOC(=O)c1cc(C)n(CN(CCO)Cn2nc(C(=O)OCC)cc2C)n1 = false (0)
O=C(CSc1nccc(=O)[nH]1)c1ccccc1 = false (0)
COC(=O)[C@@]1(C)/C(=N/NS(=O)(=O)c2ccc(C)cc2)CCC[C@@H]1C = false (0)
COc1ccc(CC2CCc3nc(N)nc(N)c3C2)cc1OC (stereo unspecified) = true (1)

Short answer needed: outcome of this test for `CC(=O)N(C(C)=O)n1nc2c(n1)C(=O)c1ccccc1C2=O` ?
false (0)

Short answer needed: outcome of this test for O=C1C=CC(=O)C2=C1[C@@H](O)C1CC=CC3C(=O)O[C@@H]2C31 (stereo partly specified) ?
false (0)

Short answer needed: outcome of this test for CCN(CC)CC1CCCCN1CC(=O)N1c2ccc(Br)cc2C(=O)Nc2cccnc21 (stereo unspecified) ?
false (0)

Short answer needed: outcome of this test for `c1ccc([P+](Cc2ccc(C[P+](c3ccccc3)(c3ccccc3)c3ccccc3)s2)(c2ccccc2)c2ccccc2)cc1` ?
false (0)

Short answer needed: outcome of this test for `CCOC(=O)NC(OC)(C(F)(F)F)C(F)(F)F` ?
false (0)

Short answer needed: outcome of this test for `O=C1N[C@@H]2CCC[C@@H]2[C@@H]1c1ccc(Cl)cc1` ?
false (0)

* * *

- Tested on: K562
- Test Name: NCI tumour cell line growth inhibition, 48 h
The source made the active and inactive calls. No stated cut-off is given here; in the data, active = GI50 up to about 1.1 µM and inactive = higher.
Measurement Type: GI50

Sample records with GI50:
O=C(NC(CO)Cc1ccc(Oc2cc(CC(CO)NC(=O)OCc3ccccc3)ccc2OC(=O)OCc2ccccc2)cc1)OCc1ccccc1 (configuration not stated) = 10.9 µM (inactive)
[N-]=[N+]=CC(=O)OCC1SCCCS1 = > 100 µM (inactive)
Cc1nn(C)c(=S)n(C)c1=O = 0.343 µM (active)

Kindly note the recorded GI50 for `O=C(O)CCNS(=O)(=O)c1ccc2ccccc2c1` , which is > 100 µM (inactive)

Kindly note the recorded GI50 for CC(C)(Br)C1(O)CCCN1C(=O)c1ccccc1 (configuration not stated) , which is 33 µM (inactive)

Kindly note the recorded GI50 for Cc1cc2ncn(C3CCCCO3)c2cc1C (configuration not stated) , which is > 100 µM (inactive)

Kindly note the recorded GI50 for `CCOc1cc2ccc3c4cc(OC)c(OC)cc4cnc3c2cc1OCC` , which is > 100 µM (inactive)

Kindly note the recorded GI50 for CCCCC1(N=[N+]=[N-])C(=O)C2C=CC=C3c4ccccc4N(C1=O)C32 (configuration not stated) , which is 17.3 µM (inactive)

Kindly note the recorded GI50 for `Cc1cc2oc3c(ccc(=O)n3C)c(=O)c2c(C)c1Cl` , which is 41.9 µM (inactive)

Kindly note the recorded GI50 for CCCCCCOC(=O)C(N)Cc1ccc(OC)cc1 (configuration not stated) , which is > 100 µM (inactive)

* * *

- Tested on: HL-60
- Test Name: NCI tumour cell line growth inhibition, 48 h
Active and inactive are the calls of the source. Rule as the data show it: active = GI50 up to about 1.1 µM and inactive = higher.
Use one of these outcomes when replying: active, inactive

As a guide, the following entries are already answered.
[N-]=[N+]=CC(=O)OCC1SCCCS1 = inactive
NCCCCNc1ccc2c(=O)[nH][nH]c(=O)c2c1 = inactive
CCCCNC1=C2C(=O)NN=C2CO1 = inactive
CC(=O)N(C(C)=O)n1nc2c(n1)C(=O)c1ccccc1C2=O = inactive
COCn1c(C)c(C)c2c(=O)oc(=O)[nH]c21 = inactive
COC(CC1(/C=C/O[Si](C(C)C)(C(C)C)C(C)C)C(=O)N(C)c2ccccc21)OC (stereo not given) = inactive
NC(=S)N/N=C\CC(O)(C(F)(F)F)C(F)(F)F = inactive
O=C(/N=N/c1ccccc1Br)NNc1ccccc1Br = inactive
CC(=O)Oc1ccc2c(=O)c(C(C)=O)coc2c1 = inactive
COCCc1c(C)c(C#N)c2n(C)c3ccccc3n2c1=O = active

Short answer needed: outcome of this test for `C=CCON(C(=O)OC(C)(C)C)C(C)(C)C` ?
inactive

Short answer needed: outcome of this test for CCCCCCOC(=O)C(N)Cc1ccc(OC)cc1 (stereo not given) ?
inactive

Short answer needed: outcome of this test for `c1ccc(/N=C2\c3ccccc3CN2c2ccccn2)nc1` ?
active

Short answer needed: outcome of this test for `CN1CCN(C(=S)N(C(=O)c2ccc(Cl)cc2)c2ccccc2)CC1` ?
inactive

* * *

Reported GI50 values for a set of compounds
- System: SNB-19
- Test Name: NCI tumour cell line growth inhibition, 48 h
Active and inactive are the calls of the source. No stated cut-off is given here; in the data, active = GI50 up to about 1.1 µM and inactive = higher.

CC(C)(C)C(=O)OCC1OC(N=[N+]=[N-])C(OC(=O)C(C)(C)C)C(OC(=O)C(C)(C)C)C1OC(=O)C(C)(C)C (configuration not stated) = > 100 µM (inactive)

Kindly note the recorded GI50 for `CN(NC(=O)c1cccs1)C1=NCCCN1` , which is > 100 µM (inactive)

Kindly note the recorded GI50 for CCOc1ncn(-c2ccc(NC(=S)NC3OC(CO)C(O)C(O)C3O)cc2)n1 (configuration not stated) , which is > 100 µM (inactive)

Kindly note the recorded GI50 for CN1C(=O)CC2(C)c3cc(O)ccc3N(C)C12 (configuration not stated) , which is 46.9 µM (inactive)

Kindly note the recorded GI50 for COc1cccc(C2C(C(=O)O)=C(CO)Oc3cc4c(cc32)OCO4)c1 (configuration not stated) , which is > 100 µM (inactive)

Kindly note the recorded GI50 for Nc1nc(Cl)c(/N=N/c2ccc(Cl)cc2)c(NCC2(CO)CCC(CCc3ccccc3)C2)n1 (configuration not stated) , which is 19.5 µM (inactive)

Kindly note the recorded GI50 for `COc1cccc([C@H]2C/C(=N\NC(=O)C(=O)N[C@@H](C)c3ccccc3)c3ccccc3N2)c1` , which is 6.52 µM (inactive)

Kindly note the recorded GI50 for `CNC(=O)N(C)C(=O)c1ccccc1C(=O)N(C)C(=O)NC` , which is > 10 µM (inactive)

Kindly note the recorded GI50 for C=CC1CCC[N+]1(CC(=O)OCC)Cc1ccccc1 (configuration not stated) , which is > 100 µM (inactive)

Kindly note the recorded GI50 for `Cn1c(-c2ccc(-c3cc(-c4cccs4)c(-c4cccs4)n3C)cc2)cc(-c2cccs2)c1-c1cccs1` , which is > 100 µM (inactive)

Kindly note the recorded GI50 for `COc1ccc(OC/C(N)=N/NC(=O)c2ccncc2)cc1` , which is > 100 µM (inactive)

Kindly note the recorded GI50 for `O=C(NCCN1CCCCC1)c1ccc(Br)cc1` , which is > 100 µM (inactive)

Kindly note the recorded GI50 for `O=C1NC(=S)N(c2cccc3ccccc23)C(=O)/C1=C/c1c[nH]c2ccccc12` , which is 3.08 µM (inactive)

Kindly note the recorded GI50 for CCCCC1=CC1(C#N)[N+](=O)[O-] (configuration not stated) , which is > 100 µM (inactive)

Kindly note the recorded GI50 for `COc1cc2c(cc1OCc1ccccc1)NC(=S)[C@@H]1CCCN1C2=S` , which is > 100 µM (inactive)

Kindly note the recorded GI50 for `COc1ccc2oc(=O)c(-c3nc4ccccc4s3)cc2c1` , which is 46.7 µM (inactive)

Kindly note the recorded GI50 for CCCOC(=O)c1cc(C(=CCC[C@H]2CC[C@@]3(C)[C@@H](CC[C@@H]4[C@@H]3CC[C@]3(C)[C@@H](C(C)CCCC(C)C)CC[C@@H]43)C2)c2cc(Cl)c(O)c(C(=O)OCCC)c2)cc(Cl)c1O (some centres not stated) , which is > 50 µM (inactive)

Kindly note the recorded GI50 for COC(=O)/C=C/C(=O)C1C(C(=O)OC)C2(C(=O)OC)CCC1(C(=O)OC)N2 (configuration not stated) , which is > 100 µM (inactive)

Kindly note the recorded GI50 for `Nc1ccc2c(c1)NC(=O)[C@@H]1CCCN1C2=O` , which is > 100 µM (inactive)

Kindly note the recorded GI50 for Brc1cccc(Nc2ncnc3sc4c(c23)CCC(Nc2cccc(Br)c2)C4)c1 (configuration not stated) , which is > 100 µM (inactive)
